biological target: MaxL homodimer (Homo sapiens, UniProt P61244 1-160); assay: universal protein-binding microarray (PBM); PBS-based mixture, 10 nM His-tagged protein dimer, 2% milk, 200 ng/uL BSA, 50 ng/uL salmon testes DNA, 0.02% TX-100; detection with Alexa 488 anti-His antibody;; high values mean tight binding; conditions: protein: recombinant; tags: C-terminal His-tag (pET21a); chain copies: 2; dsDNA, one strand shown;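 note: fluorescence intensity normalized to that of the highest-ranked 8-mer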
Sequence (P61244 whole entry): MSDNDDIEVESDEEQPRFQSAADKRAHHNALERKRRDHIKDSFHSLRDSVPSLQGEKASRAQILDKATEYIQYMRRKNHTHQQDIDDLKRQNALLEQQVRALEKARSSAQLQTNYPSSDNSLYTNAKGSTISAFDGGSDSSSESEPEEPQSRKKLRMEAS
The full ranking holds about 33,000 sequences; the median of “normalized occupancy” is about 0.075, and the highest 2% start at about 0.095. The sample holds the highest values, similar sequences and a random draw of the others, so the mix is not that of the screen.
Consider the following sequences; for each one, report its binding signal.
Answers are plain numbers, in normalized occupancy.

Consider the following illustrative entries.
* GTGCCCTA | 0.0772
* AGATGCAG | 0.0757
* ACGCCACG | 0.0993
* AGAACAAT | 0.0787
* AGCGTTGG | 0.0764

# return binding signal for each item in the list
1. AATCTAAC
2. GAGCTATA
3. ACATGGGT
4. AAACGTGG
5. CTCTCCAC

Output:
[0.0749, 0.0729, 0.1, 0.123, 0.0859]

# return binding signal for each item in the list
1. GGCGTGGA
2. AGCATGCG
3. GCATACCA
4. GAGATGGA
5. GTTGTTTA
6. ACGCGCCC
7. ACATGGGG

Output:
[0.0968, 0.124, 0.0835, 0.0798, 0.0784, 0.0753, 0.101]

# return binding signal for each item in the list
1. AAACGTGA
2. CTCATGTA
3. GACATTTA
4. GCCGTGGA

Output:
0.099
0.0936
0.0853
0.0736

* * *

target: MaxL homodimer (Homo sapiens, UniProt P61244 1-160); test: universal protein-binding microarray (PBM); PBS-based mixture, 10 nM His-tagged protein dimer, 2% milk, 200 ng/uL BSA, 50 ng/uL salmon testes DNA, 0.02% TX-100; detection with Alexa 488 anti-His antibody;; high values mean tight binding; conditions: protein: recombinant; tags: C-terminal His-tag (pET21a); chain copies: 2; dsDNA, one strand shown;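 note: fluorescence intensity normalized to that of the highest-ranked 8-mer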
The full ranking holds about 33,000 sequences; the median of “normalized occupancy” is about 0.075, and the highest 2% start at about 0.095. The sample as a whole holds a higher share of the highest values than the screen did.
measured-metric: binding signal

Consider the following illustrative entries.
* CAATCTCG | 0.0753 normalized occupancy
* ACGTGCCG | 0.0929 normalized occupancy

# return binding signal for each item in the list
1. CCTAGATA
2. GTTTCGCA
3. ACCATTGC
4. CACGTCGC
5. CCATGTCC
6. CACGTGGA

Output:
0.0756 normalized occupancy
0.0757 normalized occupancy
0.0746 normalized occupancy
0.0825 normalized occupancy
0.0824 normalized occupancy
0.768 normalized occupancy

# return binding signal for each item in the list
1. CATGCATA
2. ATCCACAT

Output:
0.0989 normalized occupancy
0.0977 normalized occupancy

# return binding signal for each item in the list
1. GATAGTGC
2. AACGTGGA
3. AGATGTGG
4. CACGTGGC
5. ATACTGGC
6. AACGTACT
7. CACGGCAC
8. AGATAGGC

Output:
0.0782 normalized occupancy
0.115 normalized occupancy
0.0868 normalized occupancy
0.837 normalized occupancy
0.0812 normalized occupancy
0.0746 normalized occupancy
0.078 normalized occupancy
0.078 normalized occupancy

# return binding signal for each item in the list
1. CGATGTGC
2. ACGTGCCA
3. GAATGTGA

Output:
1: 0.0807 normalized occupancy; 2: 0.115 normalized occupancy; 3: 0.0817 normalized occupancy

# return binding signal for each item in the list
1. CCGTGCCA
2. ACATATCC

Output:
1. 0.0772 normalized occupancy
2. 0.0835 normalized occupancy

# return binding signal for each item in the list
1. AACTCTAC
2. ACATATGG
3. ACATATGT
4. TACGTGGA
5. GCACGCGA

Output:
1: 0.0729 normalized occupancy; 2: 0.0977 normalized occupancy; 3: 0.0906 normalized occupancy; 4: 0.0878 normalized occupancy; 5: 0.109 normalized occupancy

# return binding signal for each item in the list
1. TACTAATA
2. ACATATGC
3. GCGCGCGC
4. CACGTGGG
5. AATGCATA
6. CTTTTCGA
7. ATTGTAAC
8. CAAGTGGG

Output:
["0.0814 normalized occupancy", "0.0976 normalized occupancy", "0.0821 normalized occupancy", "0.707 normalized occupancy", "0.0839 normalized occupancy", "0.0725 normalized occupancy", "0.0837 normalized occupancy", "0.0807 normalized occupancy"]

# return binding signal for each item in the list
1. TATGCATA
2. ACATGTCC
3. AACCACAA

Output:
0.0811 normalized occupancy
0.0918 normalized occupancy
0.0762 normalized occupancy

* * *

biological target: MaxL homodimer (Homo sapiens, UniProt P61244 1-160); experiment: universal protein-binding microarray (PBM); PBS-based mixture, 10 nM His-tagged protein dimer, 2% milk, 200 ng/uL BSA, 50 ng/uL salmon testes DNA, 0.02% TX-100; detection with Alexa 488 anti-His antibody;; high values mean tight binding; details: protein: recombinant; tags: C-terminal His-tag (pET21a); chain copies: 2; dsDNA, one strand shown;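 note: fluorescence intensity normalized to that of the highest-ranked 8-mer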
In all, about 33,000 sequences were measured (“normalized occupancy”: median about 0.075, highest 2% from about 0.095 on). The list comes from a sample in which the highest values are over-represented; it also holds close analogues and randomly drawn sequences.
// boundary case: binding signal equal to 0.08 normalized occupancy maps to No; strictly smaller maps to Yes

• CATATGCA = No
• ACCGCGCG = No
• CACGCTGG = No
• CTACCACA = No
• CTATGCAC = No
• CACGCGTC = No

Task: Lab note: binding signal threshold 0.08 normalized occupancy. Does this sequence come in strictly under it? ACCGCGTA
Output: Yes

Task: Lab note: binding signal threshold 0.08 normalized occupancy. Does this sequence come in strictly under it? GAAGCATC
Output: Yes

Task: Lab note: binding signal threshold 0.08 normalized occupancy. Does this sequence come in strictly under it? CATATGCC
Output: No

Task: Lab note: binding signal threshold 0.08 normalized occupancy. Does this sequence come in strictly under it? CTATGCAG
Output: Yes

Task: Lab note: binding signal threshold 0.08 normalized occupancy. Does this sequence come in strictly under it? CCATGCAG
Output: No

Task: Lab note: binding signal threshold 0.08 normalized occupancy. Does this sequence come in strictly under it? TCGTGCAA
Output: Yes

Task: Lab note: binding signal threshold 0.08 normalized occupancy. Does this sequence come in strictly under it? ACCAAGCG
Output: Yes

Task: Lab note: binding signal threshold 0.08 normalized occupancy. Does this sequence come in strictly under it? AAGTGCAC
Output: Yes

Task: Lab note: binding signal threshold 0.08 normalized occupancy. Does this sequence come in strictly under it? CGCCCATC
Output: Yes

Task: Lab note: binding signal threshold 0.08 normalized occupancy. Does this sequence come in strictly under it? TGACTCAA
Output: Yes

Task: Lab note: binding signal threshold 0.08 normalized occupancy. Does this sequence come in strictly under it? CATATGCG
Output: No

Task: Lab note: binding signal threshold 0.08 normalized occupancy. Does this sequence come in strictly under it? ATGTGCAA
Output: No

Task: Lab note: binding signal threshold 0.08 normalized occupancy. Does this sequence come in strictly under it? CGGCAGCC
Output: Yes

Task: Lab note: binding signal threshold 0.08 normalized occupancy. Does this sequence come in strictly under it? AGACGTCC
Output: Yes

Task: Lab note: binding signal threshold 0.08 normalized occupancy. Does this sequence come in strictly under it? ATGTGCAC
Output: No

Task: Lab note: binding signal threshold 0.08 normalized occupancy. Does this sequence come in strictly under it? TATATGCA
Output: No

Task: Lab note: binding signal threshold 0.08 normalized occupancy. Does this sequence come in strictly under it? CACGCTCG
Output: No

Task: Lab note: binding signal threshold 0.08 normalized occupancy. Does this sequence come in strictly under it? GACGCGTA
Output: Yes

* * *

target: MaxL homodimer (Homo sapiens, UniProt P61244 1-160); experiment: universal protein-binding microarray (PBM); PBS-based mixture, 10 nM His-tagged protein dimer, 2% milk, 200 ng/uL BSA, 50 ng/uL salmon testes DNA, 0.02% TX-100; detection with Alexa 488 anti-His antibody;; high values mean tight binding; details: protein: recombinant; tags: C-terminal His-tag (pET21a); chain copies: 2; dsDNA, one strand shown;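 note: fluorescence intensity normalized to that of the highest-ranked 8-mer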
The full ranking holds about 33,000 sequences; the median of “normalized occupancy” is about 0.075, and the highest 2% start at about 0.095. The entries come from a sample that favours the highest values as a whole.
Consider the following sequences; for each one, report its binding signal.
Answers are plain numbers, in normalized occupancy.

Consider the following illustrative entries.
- ACTGCGGA: 0.0741
- ACGATTTC: 0.0741
- CAGCGCGC: 0.0795
- CTGGTCAC: 0.0773
- AAGCGTTA: 0.0738

# return binding signal for each item in the list
1. AAGCGTTG
2. AAGCGCGG
3. CACCGTGC
4. CAGCGTGC

Output:
1. 0.076
2. 0.0752
3. 0.0868
4. 0.118

# return binding signal for each item in the list
1. CTGTCGTA
2. AAGCGTCA

Output:
0.0747
0.0737
